# Test system: L. infantum (MHOM/FR/96/LEM3323-cl4)
# assay overview: Leishmania clinical isolate panel screen (drug-susceptibility assay in infected macrophages)
# Assay type: cell-based
# condition info: Macrophage, read-out: IC50 Mean ± SEM
measured endpoint: pIC50
Answers are plain numbers, as −log10 of the molar value.

Report pIC50 for Cc1[nH]c2nc(N)nc(C)c2c1-c1ccc(C#N)c2c1OCO2 [Compound C4] tested on L. infantum (MHOM/FR/96/LEM3323-cl4).
7.30
